# credit: PubChem BioAssay (NCI)

Tested on: MDA-MB-231 breast
Assay: NCI tumour cell line growth inhibition, 48 h; in the data active = GI50 below about 0.43 µM; inactive = the rest
Classes used: label 1 for active, label 0 for inactive

molecule=O=C(CN1CCOCC1)Nc1ccc(Cn2nnc3c2C(=O)c2nnn(Cc4ccc(NC(=O)CN5CCOCC5)cc4)c2C3=O)cc1 label_value="label 1"
molecule=CCOC(=O)/C=C(/C(=O)OCC)n1cc(Cl)c(=O)n(CC(=O)OCC)c1=O label_value="label 0"
molecule=O=C1/C(=C/c2ccc(Cl)cc2Cl)N=C(c2ccccc2)N1Cc1ccco1 label_value="label 0"
molecule=Cn1cc(-c2cnc3ccc(NC(=O)Nc4ccc(F)c(Br)c4)cc3n2)cn1 label_value="label 0"
molecule=CSc1cc(N=Nc2nc3ccccc3s2)c2ccccc2c1O label_value="label 0"
molecule="O=C(O)CCCCC(CCSCc1ccccc1)SCc1ccccc1 (stereo not drawn)" label_value="label 0"
molecule=COC(=O)CCCCN=Cc1c(O)c(O)c(C(C)C)c2cc(C)c(-c3c(C)cc4c(C(C)C)c(O)c(O)c(C=NCCCCC(=O)OC)c4c3O)c(O)c12 label_value="label 0"
molecule=O=C(c1ccco1)c1nc2ccc(C(F)(F)F)cc2[n+]([O-])c1C(F)(F)F label_value="label 0"
molecule=Cc1ccc(CS/C(=C\c2ccc([N+](=O)[O-])cc2)C(=O)c2ccc(F)cc2)cc1 label_value="label 0"
molecule="N#CSCC1CC(O)(c2ccccc2)C(c2ccccc2)C(c2ccc(Cl)cc2)O1 (stereo not drawn)" label_value="label 0"
molecule="O=C(NCCOCCOCCNc1cccc2c1C(=O)N(C1CCCNC1=O)C2=O)c1cc2c(o1)C(=O)c1ccccc1C2=O (stereo not drawn)" label_value="label 0"
molecule=COc1cccc(/C=N/NC(=O)c2ccccc2Nc2ccnc(C(F)(F)F)c2)c1O label_value="label 1"
molecule=CC[CH2][Pb]([CH2]CC)([CH2]CC)[O]C(=O)C(F)(F)F label_value="label 1"
molecule=CCCCC/C(C=C(C#N)C#N)=C/c1ccccc1 label_value="label 0"
molecule=CN1CCN(Cc2ccc(NC(=O)c3cncc(C#Cc4cnc(N)c5ccc(C#N)cc45)c3)cc2C(F)(F)F)CC1 label_value="label 1"
molecule=O=c1oc2ccc(F)cc2c(=O)n1-c1ccc(F)cc1F label_value="label 0"
molecule=COc1ccc(/C(=C2\O[C@@H]([C@H]3COC(C)(C)O3)[C@H]3OC(C)(C)O[C@@H]23)c2cc(OC)c(OC)c(OC)c2)cc1O label_value="label 0"
molecule=Cc1nn(CN2CCN(C)CC2)c(=S)n1/N=C/c1cccc2ccccc12 label_value="label 0"

----------
TGI values for the molecules below.
System: HCC-2998 colon
Experiment: NCI tumour cell line growth inhibition, 48 h
*1 amine or outer side, *2 acyl side, *3 side chain or, on linkers, in order; H or OH if unused. Where a SMILES comes first, the peptide text is derived from it. Bridges are numbered along the chain shown (N, C = ends). [ ]: non-standard residue; d: D form. The star is where a group is joined. ξ: configuration not given here. X34 = O=C(C(CCCCNO[*:3])N[*:1])[*:2]; Fmoc = O=C(OCC1c2ccccc2-c2ccccc21)*; ξW = NC(Cc1c[nH]c2ccccc12)C(=O)O; ξP = O=C(O)C1CCCN1
Measured metric: TGI

molecule=CC(=O)Nc1ccccc1Sc1ccccc1 recorded_result="> 100 µM"
molecule=NC(N)=NS(=O)(=O)c1ccc(NCc2c3ccccc3[n+]([O-])c3ccccc23)cc1 recorded_result="> 100 µM"
molecule="NC(=O)CNC(=O)C1CCCN1C(=O)C1CCCCNOC(=O)CC[C@@H](NC(=O)OCC2c3ccccc3-c3ccccc32)C(=O)NC(Cc2c[nH]c3ccccc23)C(=O)N1 (some centres undefined) (Fmoc-[dE][ξW][X34][ξP]G-NH2; ester 1-3)" recorded_result="> 100 µM"
molecule=C[C@@]12[C@H]3CC[C@@H]1[C@H](O)C(=O)N2CC3 recorded_result="> 100 µM"
molecule="COc1ccc2cc1Oc1ccc(cc1)CC1c3cc(c(OC)cc3CCN1C)Oc1c3c(cc4c1C(C2)N(C)CC4)OCO3 (centres undefined)" recorded_result="24.2 µM"
molecule=COc1ccc(CNc2cc(OC)c(OC)c(OC)c2)cc1 recorded_result="32.3 µM"
molecule="CCOC(=O)CNC(=O)C(CSCc1ccc(Br)cc1)NC(=O)CCC(N)C(=O)OCC (centres undefined)" recorded_result="> 50 µM"
molecule=COc1ccccc1Nc1nc(N)nc(N)c1N=O recorded_result="> 100 µM"
molecule="COC(=O)C(=O)C(C(=O)C=C(C)C)C(=O)C(=O)Nc1cc(C(F)(F)F)ccc1Cl (centres undefined)" recorded_result="> 100 µM"
